System: Parabacteroides merdae
Assay: growth AUC relative to DMSO control (median of replicates) (fraction); higher = more growth (less inhibition), active = hit call of the paper;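 active = AUC reduced over 20% with Padj below 0.05 in at least 2 of 3 replicates; inactive = otherwise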
Details: 20 µM; 24 h
Choose one outcome from this list and give only that: 1 (yes) = active, 0 (no) = inactive

Consider the following illustrative entries.
>>> label("COc1nc(C)nc(NC(=O)NS(=O)(=O)c2ccccc2Cl)n1")
"0 (no)"
>>> label("CCOP(=S)(OCC)Oc1cc(C)nc(C(C)C)n1")
"0 (no)"
>>> label("COC(=O)Nc1nc2ccccc2[nH]1")
"0 (no)"

INPUT: Check the results log: what was the call for ClC1=C(Cl)C(Cl)(C2(Cl)C(Cl)=C(Cl)C(Cl)=C2Cl)C(Cl)=C1Cl ?
OUTPUT: 0 (no)

INPUT: Check the results log: what was the call for Oc1ccc(-c2ccccc2)cc1 ?
OUTPUT: 0 (no)

INPUT: Check the results log: what was the call for COP(=O)(OC)Oc1ccc(S(C)=O)c(C)c1 (stereo not drawn) ?
OUTPUT: 0 (no)
